Experiment: AP1 Signaling Pathway (AID 357);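 also: ME-180 reporter cells stimulated with EGF at its EC50 level; % is scaled to controls: 0 for no effect and ±100 for the full control effect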
Conditions: ME-180 (cervical carcinoma) AP-1-bla reporter, EGF-induced, beta-lactamase ratio, 5 h; at 7.69 µM (top of the series) unless noted
Records with an inconclusive call do not appear. Activity calls are given as the source filed them. Calls follow the shape of the dose curve; as a rule, active = well fitted curve in either direction with a large enough effect (not every such curve was filed as active); inconclusive = small, poorly fitted or top-dose-only effect, or another doubt; inactive = flat fitted curve, though single readings scatter.

Molecule: O=[N+]([O-])c1ccc(CSc2ncnc3c2ncn3[C@@H]2O[C@@H](CO)[C@@H](O)[C@H]2O)cc1
activity change, negative = inhibition: -12.2% [at 38 µM] (inactive)
--
Molecule: CN(C)c1ccc2nc3c(C(=O)O)cc(=O)c(O)c-3oc2c1
activity change, negative = inhibition: -7.19% (inactive)
--
Molecule: CCOC(=S)SCC(=O)O
activity change, negative = inhibition: 3.32% (inactive)
--
Molecule: CC(=O)[C@@H](C)CCO[C@@]1(C)OCC[C@@H]1C
activity change, negative = inhibition: 12.4% (inactive)
--
Molecule: CCN(CC)C[C@@H](O)c1ccc2ccc3ccccc3c2c1
activity change, negative = inhibition: 15.5% (inactive)
--
Molecule: NC1=N[C@H](c2ccc(Cl)cc2)N(c2ccc(S(=O)(=O)Nc3ncccn3)cc2)C(N)=N1
activity change, negative = inhibition: -10.6% (inactive)
--
Molecule: COc1ccc(C(=O)N2CCC3(CC2)CN(c2ccccc2)C3)cc1
activity change, negative = inhibition: -16.2% (inactive)
--
Molecule: O=CNc1ncn[nH]1
activity change, negative = inhibition: -1.52% (inactive)
--
Molecule: C[C@@]1(C(=O)O)CCC[C@@H]1C(=O)O
activity change, negative = inhibition: 8.46% (inactive)
--
Molecule: CCc1ncc(CO)n1Cc1cccc2ccccc12
activity change, negative = inhibition: 11.3% (inactive)
--
Molecule: O=C(CN1C(=O)c2ccccc2C1=O)NC1(C(=O)O)CCCC1
activity change, negative = inhibition: -5.19% (inactive)
--
Molecule: OC[C@@H]1NC[C@@H](O)[C@@H](O)[C@H]1O
activity change, negative = inhibition: 0.931% [at 38 µM] (inactive)
--
Molecule: CC(C)(N)C(=O)N[C@@H]1C(=O)N2[C@@H]1SC(C)(C)[C@H]2C(=O)O
activity change, negative = inhibition: -6.43% (inactive)
--
Molecule: Clc1ccc(Cl)c(Nc2ccnc(SCc3ccccc3)n2)c1
activity change, negative = inhibition: 1.81% (inactive)
--
Molecule: C[N+](C)(C)c1ncnc2c1ncn2[C@@H]1CCCCO1
activity change, negative = inhibition: 10.7% (inactive)

----------
Test: qHTS Assay for Inhibitors of Fructose-1,6-bisphosphate Aldolase from Giardia Lamblia: Mammalian cellular toxicity (AID 2786);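 also: compound exposure lasted 48 h before reading; nearly all actives have a fitted effect of over 60% in size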
Details: mammalian cell viability counter-screen; series mostly up to 57.5 µM
From the text: NIH Chemical Genomics Center [NCGC] NIH Molecular Libraries Probe Production centers Network [MLPCN] Assay Provider: Osnat Herzberg, University of Maryland The objective of this project is to obtain compounds that inhibit Giardia lamblia growth. G. lamblia is a human pathogen which afflicts impoverished nations; it is the most common cause of outbreaks of diarrhea in the United States. […]
Some of the results follow. Records with an inconclusive call do not appear. The source made the active and inactive calls. Calls follow the shape of the dose curve; as a rule, active = well fitted inhibition curve with a large enough effect; inconclusive = small, poorly fitted or top-dose-only effect; inactive = flat fitted curve, though single readings scatter.
Classes used: yes (active), no (inactive)

Compound: O=c1nc(N/N=C/c2ccco2)cn[nH]1
Label: no

Compound: COc1ccc(N=Nc2c(-c3ccc(OC)cc3)[nH]oc2=O)cc1
Label: no

Compound: OCCN1CCN(C(=S)c2ccc(-c3ccccc3)cc2)CC1
Label: no

Compound: CCN(CC(=O)NC(=O)NCc1ccccc1)Cc1nc2ccccc2c(=O)[nH]1
Label: no

Compound: CCc1ccc2c(c1)C1(NN=C(c3ccccc3)S1)C(=O)N2 (stereo not drawn)
Label: yes

Compound: CSc1n[nH]c(=S)n1N
Label: no

Compound: Cc1cc(C)nc(N/N=C/c2ccc([N+](=O)[O-])o2)n1
Label: no

Compound: C=CCc1cc(C)ccc1OCCCn1ccnc1
Label: no

Compound: Cc1csc(NC(=O)CN2CCCCCC2)n1
Label: no

Compound: O=C(CN1C(=O)COc2ccccc21)Nc1ccc(F)cc1
Label: no

Compound: Cc1cccc(C)c1OCCN1CCOCC1
Label: no

Compound: CCN(CC(=O)Nc1ccc(S(=O)(=O)N2CCCC2)cc1)CC(=O)Nc1cccc(OC)c1
Label: no

Compound: CNC(=S)N/N=C/c1ccc(N2CCOCC2)s1
Label: no

Compound: Cc1nnc(SCC2=C(C(=O)O)N3C(=O)C(NC(=O)Cn4nc(C)c(Cl)c4C)C3SC2)s1 (stereo not drawn)
Label: no

Compound: O=C(CN1CCN(Cc2ccccc2)CC1)Nc1ccc(F)c(F)c1
Label: no

Compound: Oc1ccc2ccccc2c1N=Nc1nccs1
Label: yes

Compound: COC(=O)CC1=NN(c2nc(C)cc(C)n2)C(=O)C1
Label: no

Compound: CN1C(=O)/C(=C\c2ccc(-c3ccccc3)o2)SC1=S
Label: no

Compound: Cc1nc(N2CCOCC2)sc1C(=O)NN
Label: no

Compound: Cc1cccc(-c2nnc(SCC(=O)O)n2Cc2ccccc2)c1
Label: no

Compound: CN1CCCc2cc(C#N)c(=O)[nH]c21
Label: no

Compound: O=C(Nc1nnc(-c2ccco2)o1)c1ccc(S(=O)(=O)N2CCOCC2)cc1
Label: no

Compound: COc1ccc(C(=O)NC(=S)N2CCCCC2c2cccnc2)cc1OC (stereo not drawn)
Label: no

Compound: O=C(N/N=C/c1ccccn1)c1cccnc1
Label: no

Compound: Clc1cccc(CN2COc3c(cc(Cl)c4cccnc34)C2)c1
Label: yes

Compound: Cc1cc(C)c2c(=O)[nH]c(SCC(=O)Nc3ccc(Br)cc3)nc2n1
Label: no

Compound: C/C(=N\NC(N)=S)c1cccnc1
Label: no

Compound: O=C1CCCN1CCCNC(=S)Nc1ccc(F)c(Cl)c1
Label: no

Compound: COc1ccc(OC)c(Nc2nc(-c3ccc(O)c(O)c3)cs2)c1
Label: no

Compound: COc1ccc(CN2CCN(Cc3ccc(OC)c(OC)c3OC)CC2)cc1
Label: no

Compound: Cc1ccc(S(=O)(=O)NNC(=S)NC(C)(C)C)cc1
Label: no

Compound: Oc1[nH]c2ccc(Br)cc2c1N=Nc1nn[nH]n1
Label: no

Compound: C=CCNC(=S)/N=c1/ccccn1Cc1ccccc1
Label: no

Compound: CCN1CCc2c(C#N)c(NCc3ccccc3)nc(NCCO)c2C1
Label: no

Compound: Cc1ccc(OCCCCc2c(C)n[nH]c2C)cc1
Label: no

Compound: CC(C)(c1ccccc1)c1ccc(OCCN2CCCC2)cc1
Label: no

Compound: O=C(Nc1ccccc1Cl)O/N=C(/c1ccccc1)c1ccccn1
Label: no

Compound: Cc1ccc(C(=O)Nc2nnc(C3=COCCO3)o2)cc1C
Label: no

----------
System: CP237
Assay: qHTS profiling for inhibitors of Plasmodium falciparum proliferation (AID 504749); also: nearly all actives have a fitted effect of over 60% in size
Details: P. falciparum in erythrocytes, SYBR Green DNA, 72 h; series mostly up to 28.7 µM
Results filed as inconclusive are left out. Activity calls are given as the source filed them. The call rests on the fitted dose curve; in most records, active means well fitted inhibition curve with a large enough effect; inconclusive means small, poorly fitted or top-dose-only effect; inactive means flat fitted curve, though single readings scatter.
Classes used: y for active, n for inactive

Compound: OC[C@H](S)CS
Target Of Assay: CP237
Label: y
--
Compound: C[N+]1(C)[C@@H]2CC(OC(=O)[C@@H](CO)c3ccccc3)C[C@@H]1[C@H]1O[C@H]12 (some centres undefined)
Target Of Assay: CP237
Label: n
--
Compound: C[C@]12CC[C@H]3c4ccc(O)cc4CC[C@@H]3[C@H]1CC[C@@H]2OP(=O)(O)O
Target Of Assay: CP237
Label: n
--
Compound: COc1cccc2c1C(=O)c1c(O)c3c(c(O)c1C2=O)C[C@](O)(C(=O)CO)C[C@@H]3O[C@H]1C[C@H](N)[C@@H](O)[C@H](C)O1
Target Of Assay: CP237
Label: n

These entries and their values trace back to PubChem BioAssay (NCATS).
